tested on: Plasmodium falciparum; assay: Screen against P. falciparum Asexual Blood Stage (ABS), at 5uM; assay type: functional, Dd2; conditions: tested at 5 uM
Among all 65,000 compounds or so, about 2,100 (3.2%) showed an effect of 50% or more. The median lay at about -52%. What follows is part of a selection rich in strong results, with near analogues and random picks from the rest.
READOUT NAME: INHIBITION (%)

{"COMPOUND": "CCn1c(CN2CCN(CC(N)=O)CC2)nc2c(F)cccc21", "SYSTEM NAME": "Plasmodium falciparum", "READOUT NAME": "INHIBITION", "RESULT": -147}
{"COMPOUND": "Cc1cc2ccccc2n1CCC(=O)N1CCCC(O)(CN(C)C)CC1 (stereo not drawn)", "SYSTEM NAME": "Plasmodium falciparum", "READOUT NAME": "INHIBITION", "RESULT": 55.2}
{"COMPOUND": "CNc1cccc(C2CCCN(C(=O)c3cscn3)C2)n1 (stereo not drawn)", "SYSTEM NAME": "Plasmodium falciparum", "READOUT NAME": "INHIBITION", "RESULT": -9}
